Just for reference, patent US12338199B2 is where these values come from.

# TESTED SYSTEM: T1, His9-hMSR1 (human MSR1 extracellular domain) (Homo sapiens, UniProt P21757)
# T1 construct: human MSR1 extracellular domain expressed with a N-terminal nonahistidine tag; purchased R&D Systems 2708-MS
# T1 sequence (P21757 77-451 limits assumed): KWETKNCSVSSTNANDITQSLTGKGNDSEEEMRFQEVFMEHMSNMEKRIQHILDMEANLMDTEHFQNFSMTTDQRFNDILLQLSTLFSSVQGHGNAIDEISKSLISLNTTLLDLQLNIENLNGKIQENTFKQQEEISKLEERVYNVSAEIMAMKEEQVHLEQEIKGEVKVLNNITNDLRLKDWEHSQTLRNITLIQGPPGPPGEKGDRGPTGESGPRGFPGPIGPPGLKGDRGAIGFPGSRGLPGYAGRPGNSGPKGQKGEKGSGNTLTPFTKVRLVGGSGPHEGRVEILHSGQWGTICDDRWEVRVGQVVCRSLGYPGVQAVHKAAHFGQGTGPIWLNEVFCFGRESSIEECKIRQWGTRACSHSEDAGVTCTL
# TEST DETAILS: Biacore surface plasmon resonance binding kinetics
# EXPERIMENTAL CONTEXT: 25° C.; calculated from the kinetic rates; read-out: KD (Molar)
MEASURED ATTRIBUTE: Kd (nM)

- MOLECULE: "H1H27729P-N297Q (antibody, V domains shown) VH: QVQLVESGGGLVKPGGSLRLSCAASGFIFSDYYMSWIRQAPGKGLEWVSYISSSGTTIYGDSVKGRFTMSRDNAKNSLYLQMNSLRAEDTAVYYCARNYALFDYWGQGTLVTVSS VL: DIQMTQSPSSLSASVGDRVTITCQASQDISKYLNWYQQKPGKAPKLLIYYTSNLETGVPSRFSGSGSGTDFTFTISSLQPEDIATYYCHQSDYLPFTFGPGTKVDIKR"
  MEASURED ATTRIBUTE: "Kd"
  UNIT DESCRIPTOR: "nM"
  MEASURED RESULT: 8.67
- MOLECULE: "H1H27754P-N297Q (antibody, V domains shown) VH: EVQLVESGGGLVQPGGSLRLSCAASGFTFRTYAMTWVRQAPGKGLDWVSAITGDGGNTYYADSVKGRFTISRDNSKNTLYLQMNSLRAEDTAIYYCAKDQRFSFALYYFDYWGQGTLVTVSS VL: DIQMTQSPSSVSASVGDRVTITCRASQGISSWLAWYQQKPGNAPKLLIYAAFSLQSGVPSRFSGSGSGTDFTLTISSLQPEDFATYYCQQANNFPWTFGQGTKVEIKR"
  MEASURED ATTRIBUTE: "Kd"
  UNIT DESCRIPTOR: "nM"
  MEASURED RESULT: 0.0499
- MOLECULE: "H1H27739P-N297Q (antibody, V domains shown) VH: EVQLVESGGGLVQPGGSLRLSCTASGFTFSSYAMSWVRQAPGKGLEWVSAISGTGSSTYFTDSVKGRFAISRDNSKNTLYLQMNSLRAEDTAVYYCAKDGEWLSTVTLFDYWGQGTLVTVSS VL: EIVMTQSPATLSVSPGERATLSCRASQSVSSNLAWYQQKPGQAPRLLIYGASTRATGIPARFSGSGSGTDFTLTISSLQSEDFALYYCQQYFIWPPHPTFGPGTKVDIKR"
  MEASURED ATTRIBUTE: "Kd"
  UNIT DESCRIPTOR: "nM"
  MEASURED RESULT: 4.68
